# measurementDescription: LNP size, PDI and zeta potential by Dynamic Light Scattering (Method A)
# Format: physicochemical
# conditionContext: LNP formulated by Method A, DLS
Rule: Met for PDI not less than 0.06, Not met for anything less.

Worked cases, answers included:
1. CCCCCCCCSC(CCCCCCC)O[Si](C)(C)OCCCCCCN(CCCCO)CCCCCCO[Si](C)(C)OC(CCCCCCC)SCCCCCCCC (stereo not shown) = Met
2. CCCCCCCC[Si](C)(C)OC(CCCCCCC)OCCCCCCN(CCCCCCOC(CCCCCCC)O[Si](C)(C)CCCCCCCC)CCC1CCCN1C (stereo not shown) = Not met

Hi, just wondering whether CCCCCCCCOC(CCCCCN(CCO)CCCCCCCC(=O)OC(CCCCCCCC)CCCCCCCC)O[Si](C)(C)O[Si](C)(C)CCCCCCCC (stereo not shown) shows PDI of 0.06 or higher.
Not met

Hi, just wondering whether CC/C=C\C/C=C\C/C=C\C/C=C\C/C=C\CCCCN(CCCCO)CCCCCCO[Si](C)(C)OC(CCCCCCC)OCCCCCCCC (stereo not shown) shows PDI of 0.06 or higher.
Met

Hi, just wondering whether CCCCCCCCC(CCCCCC)C(=O)OCCCCCCN(CCCCO)CCCCCCOC(=O)C(CCCCCC)CCCCCCCC (stereo not shown) [ALC-0315, reference compound] shows PDI of 0.06 or higher.
Met

Hi, just wondering whether CCCCCCCCCCOC(CCCCC)O[Si](C)(C)OCCCCCCN(CCCCO)CCCCCCOC(=O)C(CCCCCC)CCCCCCCC (stereo not shown) shows PDI of 0.06 or higher.
Met

Hi, just wondering whether CCCCCCCCCCSC(CCCC)C(=O)OCCCCCCN(CCCCO)CCCCCCOC(CCCCCCC)O[Si](C)(C)O[Si](C)(C)CCCCCCCC (stereo not shown) shows PDI of 0.06 or higher.
Not met

Hi, just wondering whether CCCCCCCCOC(CCCCCN(CCCCCC(OCCCCCCCC)O[Si](C)(C)O[Si](C)(C)CCCCCCCC)CCC1CCCN1C)O[Si](C)(C)O[Si](C)(C)CCCCCCCC (stereo not shown) shows PDI of 0.06 or higher.
Not met

Hi, just wondering whether CCCCCCCCC(CCCCCC)CO[Si](C)(C)OC(CCCCCCC)OCCCCCCN(CCCCO)CCCCCCOC(=O)C(CCCCCC)CCCCCCCC (stereo not shown) shows PDI of 0.06 or higher.
Met

Hi, just wondering whether CCCCCCCCOC(CCCCCN(CCCCO)CCC[C@@H](C)C1CCC2C3CCC4C[C@H](OC)CC[C@]4(C)C3CC[C@@]21C)O[Si](C)(C)OCC(CCCCCC)CCCCCCCC (stereo partly shown) shows PDI of 0.06 or higher.
Met

Hi, just wondering whether CC/C=C\C/C=C\C/C=C\C/C=C\C/C=C\CCCCN(CCCCO)CCCCCC(OCCCCCCCC)O[Si](C)(C)O[Si](C)(C)CCCCCCCC (stereo not shown) shows PDI of 0.06 or higher.
Not met

Hi, just wondering whether CCCCCCCCCC(OCCCCCCN(CCCCO)CCCCCCOC(CCCCCCCCC)O[Si](C)(C)CCCCCC)O[Si](C)(C)CCCCCC (stereo not shown) shows PDI of 0.06 or higher.
Not met

Hi, just wondering whether CCCCCCCCOC(CCCCCCC)O[Si](C)(C)CCCCCCN(CCCCO)CCCCCC[Si](C)(C)OC(CCCCCCC)OCCCCCCCC (stereo not shown) shows PDI of 0.06 or higher.
Met

Hi, just wondering whether CCCCCCCCOC(CCCCCN(CCO)CCCCCCCC(=O)OC(CCCCCCCC)CCCCCCCC)O[Si](C)(C)OCCCCCCCC (stereo not shown) shows PDI of 0.06 or higher.
Met

Hi, just wondering whether CCCCCCCCOC(CCCCCN(CCCCO)CCC[C@@H](C)C1CCC2C3CCC4C[C@H](OC)CC[C@]4(C)C3CC[C@@]21C)O[Si](C)(C)OCCCCCCCC (stereo partly shown) shows PDI of 0.06 or higher.
Met

Hi, just wondering whether CC/C=C\C/C=C\C/C=C\C/C=C\C/C=C\CCCCN(CCCCO)CCCCCCOC(CCCCCCC)O[Si](C)(C)O[Si](C)(C)CCCCCCCC (stereo not shown) shows PDI of 0.06 or higher.
Met
